Below, each of the binders is paired with its reported koff value.
target-or-test-system: T1, recombinant human CEACAM5 (human, UniProt P06731 35-685, limits assumed)
T1 construct: Immobilised by amine coupling on a CM5 chip
T1 sequence (looked up): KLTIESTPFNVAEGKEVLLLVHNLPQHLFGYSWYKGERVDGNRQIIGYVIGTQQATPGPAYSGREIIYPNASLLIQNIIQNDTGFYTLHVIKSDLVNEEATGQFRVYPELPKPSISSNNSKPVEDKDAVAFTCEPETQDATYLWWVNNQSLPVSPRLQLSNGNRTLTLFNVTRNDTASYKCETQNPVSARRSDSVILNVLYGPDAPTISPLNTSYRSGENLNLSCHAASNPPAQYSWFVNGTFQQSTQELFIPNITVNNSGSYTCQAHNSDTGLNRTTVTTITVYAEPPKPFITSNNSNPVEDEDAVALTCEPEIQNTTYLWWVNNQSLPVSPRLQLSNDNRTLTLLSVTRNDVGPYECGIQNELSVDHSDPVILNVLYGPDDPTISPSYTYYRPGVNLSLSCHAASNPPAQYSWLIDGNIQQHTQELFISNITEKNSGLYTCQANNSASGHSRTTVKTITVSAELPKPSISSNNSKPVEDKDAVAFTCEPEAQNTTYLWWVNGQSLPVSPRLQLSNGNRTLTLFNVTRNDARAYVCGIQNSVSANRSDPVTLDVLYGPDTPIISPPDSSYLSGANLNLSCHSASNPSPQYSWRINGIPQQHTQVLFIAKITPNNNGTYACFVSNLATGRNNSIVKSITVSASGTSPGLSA
assay-info: SPR Biacore 8K+, CEACAM5 amine-coupled on CM5, ISVD analyte, 1:1 fit

Solved entries:
binder	property-name	value-observed
T028501820 (VHH, K43R vs precursor T028501817; also called A0315024B02(M43R, Q64K, K83R)) VHH: EVQLVESGGGVVQPGGSLRLSCAASGHTFSEYALGWFRQAPGREREFVAAINWGGGWTYYADSVKGRFTISRDNAKNTLYLQMNSLRPEDTALYYCAASSDYAGGNPTGYPYWGQGTLVTVSS	koff	0.00172 s⁻¹
T028501829 (VHH, K75Q vs precursor T028501817; also called A0315024B02(M43K, Q64K, K75Q, K83R)) VHH: EVQLVESGGGVVQPGGSLRLSCAASGHTFSEYALGWFRQAPGKEREFVAAINWGGGWTYYADSVKGRFTISRDNAQNTLYLQMNSLRPEDTALYYCAASSDYAGGNPTGYPYWGQGTLVTVSS	koff	0.00208 s⁻¹
T028501828 (VHH, K75E vs precursor T028501817; 38 used; also called A0315024B02(M43K, Q64K, K75E, K83R)) VHH: EVQLVESGGGVVQPGGSLRLSCAASGHTFSEYALGWFRQAPGKEREFVAAINWGGGWTYYADSVKGRFTISRDNAENTLYLQMNSLRPEDTALYYCAASSDYAGGNPTGYPYWGQGTLVTVSS	koff	0.00203 s⁻¹

Continue with the binder presented below.
(Q) Please report the recorded koff for T028501798 (VHH, K64H vs precursor T028501789; also called A0315007E07(K64H)) VHH: EVQLVESGGGVVQPGGSLRLSCAASGLTFSTYTMGWFRQAPGKEREFVAAIIWSGSNTYYADSVHGRFTISRDNAKNTVYLQMNSLRPEDTALYYCAAQHFGPIGLTTRGYHYWGQGTLVTVSS .
(A) 0.000962 s⁻¹

From: patent US20250236673A1
